assayedTarget: Sigma non-opioid intracellular receptor 1 (Cavia porcellus)
procedureText: Binding affinity against sigma sites in guinea pig membrane using [3H](+)-3-PPP as the radioligand
pIC50: −log10 of the molar value.
Use true (1) when the recorded pIC50 is no lower than 6; use false (0) when it is lower.

Input: Determine whether measured pIC50 meets or exceeds 6 for c1ccc(OCCN2C3CCC2c2c([nH]c4ccccc24)C3)cc1 (stereo unspecified)
Output: true (1)

Input: Same for c1ccc(OCCCN2C3CCC2c2c([nH]c4ccccc24)C3)cc1 (stereo unspecified)
Output: true (1)

Input: Similarly, c1ccc(CCCCCN2C3CCC2c2c([nH]c4ccccc24)C3)cc1 (stereo unspecified) ?
Output: true (1)

Input: And the next one, c1csc(CCCCN2C3CCC2c2c([nH]c4ccccc24)C3)c1 (stereo unspecified) ?
Output: true (1)

Input: Record: c1ccc(OCCCCN2C3CCC2c2c([nH]c4ccccc24)C3)cc1 (stereo unspecified)
Output: true (1)

Input: And c1ccc(CCCCN2C3CCC2c2c(n(Cc4ccccc4)c4ccccc24)C3)cc1 (stereo unspecified) ?
Output: true (1)

Input: Follow-up entry: O=C1c2ccccc2C(=O)N1CCCN1C2CCC1c1c([nH]c3ccc(F)cc13)C2 (stereo unspecified)
Output: false (0)

Input: What do you have for Clc1ccc(OCCN2C3CCC2c2c([nH]c4ccccc24)C3)cc1 (stereo unspecified) ?
Output: false (0)
